Below, each entry is listed alongside its reported IC50.
Target: UniProt:P06401
Sequence (P06401 165-933): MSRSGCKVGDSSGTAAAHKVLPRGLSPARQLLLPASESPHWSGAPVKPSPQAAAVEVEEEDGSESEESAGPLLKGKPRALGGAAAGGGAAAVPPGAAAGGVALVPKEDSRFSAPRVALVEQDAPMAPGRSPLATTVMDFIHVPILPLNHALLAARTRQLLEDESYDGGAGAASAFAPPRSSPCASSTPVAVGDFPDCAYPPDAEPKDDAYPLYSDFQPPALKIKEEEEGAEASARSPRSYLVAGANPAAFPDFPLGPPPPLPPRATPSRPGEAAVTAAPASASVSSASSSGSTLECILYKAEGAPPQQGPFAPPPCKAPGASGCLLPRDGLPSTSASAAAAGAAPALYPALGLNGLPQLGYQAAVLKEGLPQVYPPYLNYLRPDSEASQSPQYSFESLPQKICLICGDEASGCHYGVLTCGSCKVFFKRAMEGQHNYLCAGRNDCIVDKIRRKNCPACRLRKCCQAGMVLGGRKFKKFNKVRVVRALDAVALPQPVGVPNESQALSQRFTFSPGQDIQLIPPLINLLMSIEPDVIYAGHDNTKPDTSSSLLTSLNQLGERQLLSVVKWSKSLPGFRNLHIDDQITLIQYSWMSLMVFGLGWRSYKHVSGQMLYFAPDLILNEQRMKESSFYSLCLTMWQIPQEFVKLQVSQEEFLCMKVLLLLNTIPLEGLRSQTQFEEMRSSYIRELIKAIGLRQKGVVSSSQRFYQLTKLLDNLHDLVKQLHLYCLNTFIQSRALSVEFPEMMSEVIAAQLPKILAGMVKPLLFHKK
Experiment: Progesterone receptor-antagonistic action in stably transfected SK-N-MC cells with MMTV-LUC reporter (PR-A)
Conditions: antagonistic potency against 0.1 nmol/l promegestone, 24 hours, luciferase
Please state the value followed by its unit.

A selection of reference data follows.
compound	measurement
C[C@]12C[C@H](c3ccc(/C=C/CNC(=O)Nc4ccc(C(=O)O)cc4)cc3)C3=C4CCC(=O)C=C4CC[C@H]3[C@@H]1CC[C@@]2(O)C(F)(F)C(F)(F)F [Example 56]	0.9 nM
CCOC(=O)c1ccc(NC(=O)NC/C=C/c2ccc([C@H]3C[C@@]4(C)[C@@H](CC[C@@]4(O)C(F)(F)C(F)(F)F)[C@@H]4CCC5=CC(=O)CCC5=C43)cc2)cc1 [Example 55]	0.1 nM
C=C(C)c1cccc([C@H]2C[C@@]3(C)[C@@H](CC[C@@]3(O)C(F)(F)C(F)(F)F)[C@@H]3CCC4=CC(=O)CCC4=C32)c1 [Example 20]	9 nM
CCOC(=O)/C=C/c1ccc([C@H]2C[C@@]3(C)[C@@H](CC[C@@]3(O)C(F)(F)C(F)(F)F)[C@@H]3CCC4=CC(=O)CCC4=C32)cc1 [Example 12]	0.13 nM
C=CCNC(=O)NC/C=C/c1ccc([C@H]2C[C@@]3(C)[C@@H](CC[C@@]3(O)C(F)(F)C(F)(F)F)[C@@H]3CCC4=CC(=O)CCC4=C32)cc1 [Example 57]	0.09 nM
C[C@]12C[C@H](c3cccc(/C=C/c4cccnc4)c3)C3=C4CCC(=O)C=C4CC[C@H]3[C@@H]1CC[C@@]2(O)C(F)(F)C(F)(F)F [Example 22]	0.3 nM
Cc1noc(C)c1NC(=O)NC/C=C/c1ccc([C@H]2C[C@@]3(C)[C@@H](CC[C@@]3(O)C(F)(F)C(F)(F)F)[C@@H]3CCC4=CC(=O)CCC4=C32)cc1 [Example 48]	0.09 nM
CCOC(=O)CCNC(=O)NC/C=C/c1ccc([C@H]2C[C@@]3(C)C(CC[C@@]3(O)C(F)(F)C(F)(F)F)C3CCC4=CC(=O)CCC4=C32)cc1 (some centres unmarked) [Example 49]	0.1 nM

Fill in: IC50 of C[C@]12C[C@H](c3ccc(CO)cc3)C3=C4CCC(=O)C=C4CC[C@H]3[C@@H]1CC[C@@]2(O)C(F)(F)C(F)(F)F [Ref. 1, reference compound] is ___
0.7 nM

Fill in: IC50 of C[C@]12C[C@H](c3cccc(/C=C/c4ccccn4)c3)C3=C4CCC(=O)C=C4CC[C@H]3[C@@H]1CC[C@@]2(O)C(F)(F)C(F)(F)F [Example 21] is ___
0.9 nM

Fill in: IC50 of C[C@]12C[C@H](c3ccc(/C=C/c4ccc(S(C)(=O)=O)cc4)cc3)C3=C4CCC(=O)C=C4CC[C@H]3[C@@H]1CC[C@@]2(O)C(F)(F)C(F)(F)F [Example 32] is ___
0.01 nM
